tested on: Acinetobacter baumannii; assay: Growth inhibition of Acinetobacter baumannii ATCC 19606 incubated for 18 hrs without shaking by absorbance based monochromator plate reader analysis; assay type: organism-based, ATCC 19606 = CIP 70.34 = JCM 6841; conditions: in vitro
measurement name: MIC

* CC(C)CCOc1ccccc1-c1ccccc1OCc1cn([C@H](CCCCN)C(=O)NCC2CCCCC2)nn1.Cl | 32 µg/mL
* CC(C)CCOc1ccccc1-c1ccccc1OCc1cn([C@H](CCCNC(=N)N)C(=O)NCCc2ccccc2)nn1.Cl | 32 µg/mL
* CC(C)CCOc1ccccc1-c1ccccc1OCc1cn([C@H](CCCNC(=N)N)C(=O)N[C@H](CCCCN)Cn2cc(CC3CCCCC3)nn2)nn1.Cl.Cl | 16 µg/mL
* CC(C)CCOc1ccccc1-c1ccccc1OCc1cn([C@H](CCCNC(=N)N)C(=O)N[C@H](CCCCN)Cn2cc(Cc3ccccc3)nn2)nn1.Cl.Cl | 32 µg/mL
* CC(C)CCOc1ccccc1-c1ccccc1OCc1cn([C@H](CCCNC(=N)N)C(=O)NCCc2ccc(F)cc2)nn1.Cl | > 32 µg/mL
* CC(C)CCOc1ccccc1-c1ccccc1OCc1cn([C@H](CCCNC(=N)N)C(=O)NCc2cc(F)cc(F)c2)nn1.Cl | > 32 µg/mL

Query molecule follows.
query: Note down MIC recorded for CC(C)CCOc1ccccc1-c1ccccc1OCc1cn([C@H](CCCNC(=N)N)C(=O)NC2CCCCC2)nn1.Cl
result: 32 µg/mL

====

tested on: Streptococcus pneumoniae; experiment: Growth inhibition of Streptococcus pneumoniae ATCC 49619 incubated in MHB medium with lysed horse blood and 5% CO2 for 24 hrs; type: organism-based
Exam item: assign MET to entries whose MIC is below 8 µg/mL and NOT MET to entries at or above 8 µg/mL. Note that a value of exactly 8 µg/mL receives NOT MET.

- CC(C)CCOc1ccccc1-c1ccccc1OCc1cn([C@H](CCCNC(=N)N)C(=O)NCc2ccccc2)nn1.Cl: MET
- CC(C)CCOc1ccccc1-c1ccccc1OCc1cn([C@H](CCCNC(=N)N)C(=O)Nc2ccccc2)nn1.Cl: MET
- CN[C@H](CC(C)C)C(=O)N[C@H]1C(=O)N[C@@H](CC(N)=O)C(=O)N[C@H]2C(=O)N[C@H]3C(=O)N[C@H](C(=O)N[C@H](C(=O)O)c4cc(O)cc(O)c4-c4cc3ccc4O)[C@H](O)c3ccc(c(Cl)c3)Oc3cc2cc(c3O[C@@H]2O[C@H](CO)[C@@H](O)[C@H](O)[C@H]2O[C@H]2C[C@](C)(N)[C@H](O)[C@H](C)O2)Oc2ccc(cc2Cl)[C@H]1O [VANCOMYCIN]: MET
- CC(C)CCOc1ccccc1-c1ccccc1OCc1cn([C@H](CCCNC(=N)N)C(=O)N[C@H](CCCCN)Cn2cc(CC3CCCCC3)nn2)nn1.Cl.Cl: MET
- CC(C)CCOc1ccc2ccccc2c1-c1c(OCc2cn([C@H](CCCNC(=N)N)C(=O)N[C@H](CCCCN)Cn3cc(CC4CCCCC4)nn3)nn2)ccc2ccccc12.Cl.Cl: MET
- CC(C)CCOc1ccc2ccccc2c1-c1c(OCc2cn([C@H](CCCCN)C(=O)N[C@H](CCCNC(=N)N)Cn3cc(CCc4ccccc4)nn3)nn2)ccc2ccccc12.Cl.Cl: MET
- CC(C)CCOc1ccccc1-c1ccccc1OCc1cn([C@H](CCCNC(=N)N)C(=O)NC2CCCCC2)nn1.Cl: MET
- CC(C)CCOc1ccc2ccccc2c1-c1c(OCc2cn([C@H](CCCNC(=N)N)C(=O)N[C@H](CCCCN)Cn3cc(CCc4ccccc4)nn3)nn2)ccc2ccccc12.Cl.Cl: MET

query: # TODO verify MIC < 8 µg/mL strictly for this compound: CC(C)CCOc1ccccc1-c1ccccc1OCc1cn([C@H](CCCNC(=N)N)C(=O)N[C@H](CCCCN)Cn2cc(C3CCCCC3)nn2)nn1.Cl.Cl
result: MET

query: Given the entry CC(C)CCOc1ccc2ccccc2c1-c1c(OCc2cn([C@H](CCCCN)C(=O)N[C@H](CCCNC(=N)N)Cn3cc(CC4CCCCC4)nn3)nn2)ccc2ccccc12.Cl.Cl , would its reported MIC be below 8 µg/mL?
result: MET

query: Criterion: MIC strictly below 8 µg/mL. Is it met by COc1cc(NC(=O)[C@@H](CCCNC(=N)N)n2cc(COc3ccccc3-c3ccccc3OCCC(C)C)nn2)cc(OC)c1.Cl ?
result: MET

query: Below 8 µg/mL on MIC? Entry CC(C)CCOc1ccc2ccccc2c1-c1c(OCC(=O)N[C@H](CCCNC(=N)N)C(=O)NCCc2ccc(F)cc2)ccc2ccccc12.Cl
result: NOT MET

query: Does CC(C)CCOc1ccccc1-c1ccccc1OCc1cn([C@H](CCCNC(=N)N)C(=O)N[C@H](CCCCN)Cn2cc(Cc3ccccc3)nn2)nn1.Cl.Cl have MIC strictly under 8 µg/mL?
result: MET

query: Input CC(C)CCOc1ccccc1-c1ccccc1OCc1cn([C@H](CCCCN)C(=O)N[C@H](CCCNC(=N)N)Cn2cc(Cc3ccccc3)nn2)nn1.Cl.Cl ; condition: MIC strictly below 8 µg/mL. Does it hold?
result: MET

query: Please state whether MIC is below 8 µg/mL for CC(C)CCOc1ccc2ccccc2c1-c1c(OCc2cn([C@H](CCCNC(=N)N)C(=O)NCCc3ccccc3)nn2)ccc2ccccc12.Cl
result: NOT MET

query: Please indicate whether the reported MIC of CC(C)CCOc1ccccc1-c1ccccc1OCc1cn([C@H](CCCNC(=N)N)C(=O)NCc2ccc(C(F)(F)F)cc2)nn1.Cl is strictly below 8 µg/mL.
result: NOT MET
